B1: Osa-1-4 twister ribozyme (parent)
chain: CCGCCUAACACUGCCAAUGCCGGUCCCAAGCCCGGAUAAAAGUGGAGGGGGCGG

- Variants of: B1
- test description: self-cleavage, relative activity (ratio to wild type); higher = more cleavage; co-transcriptional
Parameter threshold = 0.06. Response is yes (1) when self-cleavage meets or exceeds it, else no (0).

self-cleavage >= 0.06 for C31A C32U ?
no (0)

Please give the result for A39C C20G too.
yes (1)

Please give the result for C15G G13U too.
no (0)
